Tested on: SW-620
Assay: Growth inhibition of human SW620 cells after 48 hrs by SRB staining method
Assay type: functional
Details: SW-620, 48 h, read-out: pLC50 (the source's name) (converted)
Examples of compounds with documented CC50 follow.

COMPOUND: Nc1cc(N)c2nc(-c3ccccc3)c(Nc3ccc(Cl)c(Cl)c3)nc2c1
EXPERIMENTAL_TARGET: SW-620
CC50: > 100 µM
//
COMPOUND: CCOC(=O)CCC(NC(=O)c1ccc(Nc2nc3cc(N)cc(N)c3nc2-c2ccccc2)cc1)C(=O)OCC (configuration not stated)
EXPERIMENTAL_TARGET: SW-620
CC50: > 100 µM
//
COMPOUND: COc1ccc(Nc2nc3cc(N)cc(N)c3nc2-c2ccccc2)cc1OC
EXPERIMENTAL_TARGET: SW-620
CC50: 83.2 µM
//
COMPOUND: Nc1cc(N)c2nc(-c3ccccc3)c(Nc3ccc(F)cc3)nc2c1
EXPERIMENTAL_TARGET: SW-620
CC50: > 100 µM
//
COMPOUND: COc1cc(Nc2nc3cc(N)cc(N)c3nc2-c2ccccc2)cc(OC)c1
EXPERIMENTAL_TARGET: SW-620
CC50: > 100 µM
//
COMPOUND: COc1cc(Nc2nc3cc(N)cc(N)c3nc2-c2ccccc2)cc(OC)c1OC
EXPERIMENTAL_TARGET: SW-620
CC50: > 100 µM
//
COMPOUND: COc1ccc(Nc2nc3cc(N)cc(N)c3nc2-c2ccccc2)cc1
EXPERIMENTAL_TARGET: SW-620
CC50: 60.3 µM

---

System: IGROV-1
Test: Growth inhibition of human IGROV1 cells after 48 hrs by SRB staining method
Format: functional
Conditions: IGROV-1, 48 h
# maps each entry to its LC50

MOLECULE: CCOC(=O)CCC(NC(=O)c1ccc(Nc2nc3cc(N)cc(N)c3nc2-c2ccccc2)cc1)C(=O)OCC (stereo unspecified)
LC50: > 100 µM
//
MOLECULE: Nc1cc(N)c2nc(-c3ccccc3)c(Nc3ccc(Cl)c(Cl)c3)nc2c1
LC50: 66.1 µM
//
MOLECULE: COc1ccc(Nc2nc3cc(N)cc(N)c3nc2-c2ccccc2)cc1
LC50: 83.2 µM
//
MOLECULE: COc1cc(Nc2nc3cc(N)cc(N)c3nc2-c2ccccc2)cc(OC)c1
LC50: > 100 µM
//
MOLECULE: COc1ccc(Nc2nc3cc(N)cc(N)c3nc2-c2ccccc2)cc1OC
LC50: > 100 µM
//
MOLECULE: COc1cc(Nc2nc3cc(N)cc(N)c3nc2-c2ccccc2)cc(OC)c1OC
LC50: > 100 µM

---

Readings of GI50 for the listed molecules
Test system: OVCAR-5
Assay: Growth inhibition of human OVCAR5 cells after 48 hrs by SRB staining method
Format: functional
Details: OVCAR-5, 48 h

MOLECULE: Nc1cc(N)c2nc(-c3ccccc3)c(Nc3ccc(Cl)c(Cl)c3)nc2c1
GI50 [µM]: 28.2
--
MOLECULE: CCOC(=O)CCC(NC(=O)c1ccc(Nc2nc3cc(N)cc(N)c3nc2-c2ccccc2)cc1)C(=O)OCC (configuration not stated)
GI50 [µM]: 34.7
--
MOLECULE: COc1ccc(Nc2nc3cc(N)cc(N)c3nc2-c2ccccc2)cc1OC
GI50 [µM]: 29.5
--
MOLECULE: Nc1cc(N)c2nc(-c3ccccc3)c(Nc3ccc(F)cc3)nc2c1
GI50 [µM]: 38
--
MOLECULE: COc1ccc(Nc2nc3cc(N)cc(N)c3nc2-c2ccccc2)cc1
GI50 [µM]: 21.4
--
MOLECULE: COc1cc(Nc2nc3cc(N)cc(N)c3nc2-c2ccccc2)cc(OC)c1
GI50 [µM]: 26.3
--
MOLECULE: COc1cc(Nc2nc3cc(N)cc(N)c3nc2-c2ccccc2)cc(OC)c1OC
GI50 [µM]: 21.4
